Biological target: human IgEλ (U266 derived) (human, UniProt P01854 1-546)
Sequence (P01854 whole entry): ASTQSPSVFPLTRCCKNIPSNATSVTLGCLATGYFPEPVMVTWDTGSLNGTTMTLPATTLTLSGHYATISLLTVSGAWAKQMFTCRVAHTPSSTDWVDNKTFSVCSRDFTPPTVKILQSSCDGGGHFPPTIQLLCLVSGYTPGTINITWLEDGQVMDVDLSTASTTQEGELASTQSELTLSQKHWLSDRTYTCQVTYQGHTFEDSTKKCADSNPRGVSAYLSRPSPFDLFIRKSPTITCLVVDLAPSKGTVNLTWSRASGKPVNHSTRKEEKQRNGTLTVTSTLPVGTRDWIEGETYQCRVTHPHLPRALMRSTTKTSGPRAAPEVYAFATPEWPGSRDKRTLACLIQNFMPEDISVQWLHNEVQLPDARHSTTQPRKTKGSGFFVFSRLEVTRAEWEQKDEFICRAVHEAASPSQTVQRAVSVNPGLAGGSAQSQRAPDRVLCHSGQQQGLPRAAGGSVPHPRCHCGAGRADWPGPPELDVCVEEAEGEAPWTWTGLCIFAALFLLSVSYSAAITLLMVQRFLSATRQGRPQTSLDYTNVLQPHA
Assay: HTRF receptor-ligand competition, scFv titrated; Eu-cryptate human IgE (U266) binding to human FcεRI-Fc; geomean
As shown below, each of these binders has a reported pIC50 value.
Units for pIC50: none; it is -log10 of a concentration expressed in mol/L.

Antibody 26 (scFv) (scFv, V domains shown, purified scFv) VH: EVQLLESGGGLVQPGGSLRLSCAASGLTFSGYAMSWVRQAPGKGLEWVSAISGSGGRTYYADSVKGRFTISRDNSKNMLYLQMNSLRAEDTAVYYCARHIAVAGTRGFDYWGRGTLVTVSS VL: SFVLTQPPSVSVSPGQTASITCSGDKLGDTYASWYRQRSGQSPVLVIYQDDKRPSGIPERFSGSNSGNTATLTIGGTHTMDEADYYCLAWDTRTSGAVFGGGTKLTVL; 8.10
Antibody 22 (scFv) (scFv, V domains shown, purified scFv) VH: EVQLLESGGGLVQPGGSLRLSCAASGFTFSSYAMSWVRQAPGKGLEWVSAISGSGGRTYYADSAKGRFTISRDNSKNTLYLQMNGLRAEDTAVYYCARHIAVAGTRGFDYWGRGTLVTVSS VL: SYVLTQPPSVSVSPGQTASITCSGDKLGDTYTSWYRQRSGQSPVLVIYQDDKRPSGVPERFSGSNSGNTATLTISGTHTMDEADYYCLAWDTRTSGAVFGGGTKLTVL; 8.15

## Task Request the reported pIC50 associated with Antibody 5 (scFv) (scFv, V domains shown, purified scFv) VH: EVQLLESGGGLVQPGGSLRLSCAASGFTFSSYAMSWVRQAPGKGLEWVSAISGSGGRTYYADSVKGRFTISRDNSKNTLYLQMNSLRAEDTAVYYCARHIAVAGTRGFDYWGRGTLVTVSS VL: SYVLTQPPSVSVSPGQTASITCSGDKLGDTYASWYRQRSGQSPVLVIYQDDRRPSGIPERFSGSNSGNTATLTISGTHTMDEADYYCLAWDTRTSGAVFGGGTKLTAL
## Result 8.22
